Test system: MCF7
Assay: MTT colorimetric assay, MCF7
Type: cell-based
Settings: Homo sapiens, 72 h treatment, mean ± SEM, sensitive to apoptosis, read-out: IC50 determined by MTT assays, MCF7
pIC50: −log10 of the molar value.

{"MOLECULE": "CC1(C=CCCCc2ccc3ccc4cccc5ccc2c3c45)C=C2C(O)C3(O)OC(=O)C4(CCCC(C)(C)C34)C2(O)CC1 (centres unmarked) [Compound 16]", "pIC50": 5.22}
{"MOLECULE": "CC1(C=CCCCCBr)C=C2C(=O)C3(O)OC(=O)C4(CCCC(C)(C)C34)C2(O)CC1 (centres unmarked) [Compound 10]", "pIC50": 5.27}
{"MOLECULE": "COC(=O)CCC=CC1(C)C=C2C(=O)C3(O)OC(=O)C4(CCCC(C)(C)C34)C2(O)CC1 (centres unmarked) [Compound 7]", "pIC50": 5.16}
{"MOLECULE": "CC1(C=CCCBr)C=C2C(=O)C3(O)OC(=O)C4(CCCC(C)(C)C34)C2(O)CC1 (centres unmarked) [Compound 11]", "pIC50": 5.54}
{"MOLECULE": "COC(=O)CCCC=CC1(C)C=C2C(=O)C3(O)OC(=O)C4(CCCC(C)(C)C34)C2(O)CC1 (centres unmarked) [Compound 6]", "pIC50": 5.61}

---

System: A549, SKMEL-28, U373, MCF7, Hs683, B16F10
Experiment: MTT colorimetric assay, mean of the six cell lines
Assay type: cell-based
Details: 72 h, mean over the six cell lines; 72 h treatment; read-out: IC50 determined by MTT assays, Mean
From the text: Cancer cell lines were obtained from either the European Collection of Cell Cultures (ECACC; Salisbury, UK) or the American Type Culture Collection (ATCC; Manassas, VA). The two glioma cell lines were the U373 (ECACC code 08061901) and Hs683 (ATCC HTB-138) cell lines. The carcinoma cell lines were the A549 non-small cell carcinoma cell line (ATCC code CCL 185) and the MCF-7 mammary breast carcinoma cell line (ATCC code HTB-22). […]
Response field label: string, one of Satisfied (IC50 strictly below 3000 nM) or Not satisfied.

{"COMPOUND": "COC(=O)CCC=CC1(C)C=C2C(=O)C3(O)OC(=O)C4(CCCC(C)(C)C34)C2(O)CC1 (centres unmarked) [Compound 7]", "ASSIGNED CLASS": "Not satisfied"}
{"COMPOUND": "CC1(C=CCCCC(=O)O)C=C2C(=O)C3(O)OC(=O)C4(CCCC(C)(C)C34)C2(O)CC1 (centres unmarked) [Compound 8]", "ASSIGNED CLASS": "Not satisfied"}
{"COMPOUND": "CC1(C=CCOCc2ccc3ccc4cccc5ccc2c3c45)C=C2C(=O)C3(O)OC(=O)C4(CCCC(C)(C)C34)C2(O)CC1 (centres unmarked) [Compound 25]", "ASSIGNED CLASS": "Not satisfied"}
{"COMPOUND": "CC1(C=CCCOc2cccc3ccccc23)C=C2C(=O)C3(O)OC(=O)C4(CCCC(C)(C)C34)C2(O)CC1 (centres unmarked) [Compound 26]", "ASSIGNED CLASS": "Satisfied"}
{"COMPOUND": "C=C[C@]1(C)C=C2[C@@H](O)[C@@]3(O)OC(=O)[C@@]4(CCCC(C)(C)[C@H]34)[C@@]2(O)CC1 [Compound 15, sphaeropsidin B, reference compound]", "ASSIGNED CLASS": "Not satisfied"}
{"COMPOUND": "CC1(C=Cc2ccccc2)C=C2C(=O)C3(O)OC(=O)C4(CCCC(C)(C)C34)C2(O)CC1 (centres unmarked) [Compound 12]", "ASSIGNED CLASS": "Satisfied"}
{"COMPOUND": "C=C[C@]1(C)C=C2C(=O)[C@@]3(O)OC(=O)[C@@]4(CCCC(C)(C)[C@H]34)[C@@]2(O)CC1 [Compound 1, sphaeropsidin A, reference compound]", "ASSIGNED CLASS": "Satisfied"}
{"COMPOUND": "CC1(C=CCCCCc2ccc3ccc4cccc5ccc2c3c45)C=C2C(=O)C3(O)OC(=O)C4(CCCC(C)(C)C34)C2(O)CC1 (centres unmarked) [Compound 23]", "ASSIGNED CLASS": "Satisfied"}

Just for reference, paper PMC11199504 is where these values come from.
